Data origin, for the record: ChEMBL document CHEMBL4049456

Molecular target: Lysyl oxidase homolog 2 (Homo sapiens)
Sequence (Q9Y4K0 whole entry): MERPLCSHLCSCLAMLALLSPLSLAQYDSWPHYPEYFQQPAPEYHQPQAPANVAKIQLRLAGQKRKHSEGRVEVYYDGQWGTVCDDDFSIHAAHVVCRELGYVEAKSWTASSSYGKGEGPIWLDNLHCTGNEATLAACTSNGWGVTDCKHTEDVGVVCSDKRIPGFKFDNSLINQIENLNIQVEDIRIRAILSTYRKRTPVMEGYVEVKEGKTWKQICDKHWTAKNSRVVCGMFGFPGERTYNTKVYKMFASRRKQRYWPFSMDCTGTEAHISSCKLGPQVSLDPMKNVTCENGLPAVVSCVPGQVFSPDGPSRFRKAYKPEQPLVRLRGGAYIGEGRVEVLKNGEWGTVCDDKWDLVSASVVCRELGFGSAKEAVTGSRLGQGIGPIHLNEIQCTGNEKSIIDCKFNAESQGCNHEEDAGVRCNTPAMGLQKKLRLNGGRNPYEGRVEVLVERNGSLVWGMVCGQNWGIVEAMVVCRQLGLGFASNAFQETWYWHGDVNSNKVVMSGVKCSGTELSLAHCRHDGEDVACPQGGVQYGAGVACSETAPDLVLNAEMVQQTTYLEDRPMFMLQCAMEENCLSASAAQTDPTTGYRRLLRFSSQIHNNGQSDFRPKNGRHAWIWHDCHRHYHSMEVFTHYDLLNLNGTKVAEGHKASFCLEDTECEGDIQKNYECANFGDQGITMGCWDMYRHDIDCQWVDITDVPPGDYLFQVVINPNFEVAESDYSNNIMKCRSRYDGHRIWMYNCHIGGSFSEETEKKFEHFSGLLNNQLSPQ
Assay: Inhibition of human LOXL2 expressed in CHO cells assessed as reduction of H2O2 production from oxidative deamination of DAP preincubated for 2 hrs followed by substrate addition measured every 2 mins for 1 hr by amplex red reagent-based fluorescence assay
Type: cell-based
recorded-endpoint: IC50

1) Cl.NCc1cc(Oc2cccc(C(=O)Nc3ccccc3)c2)nc(C(F)(F)F)c1: 0.042 µM
2) Cl.NCc1cc(Oc2cccc(C(=O)N3C[C@@H](O)[C@H](F)C3)c2)nc(C(F)(F)F)c1 (racemic): 0.078 µM
3) NCc1ccnc(Oc2ccc(C(=O)Nc3ccccc3)cc2)c1: 0.27 µM
4) N=C(N)c1cccc(CNC(=O)c2cccc(Oc3cc(CN)ccn3)c2)c1: 0.18 µM
5) NCc1cc(O[C@H]2CCCN(C(=O)Nc3ccccc3)C2)nc(C(F)(F)F)c1: 0.13 µM
6) Cl.NCc1cc(Oc2cccc(C(=O)NCCn3cnnn3)c2)nc(C(F)(F)F)c1: 0.043 µM
7) COc1ccc(NC(=O)c2cccc(Oc3cc(CN)ccn3)c2)cc1: 0.053 µM
8) NCc1ccnc(Oc2cccc(C(=O)Nc3ccc(F)cc3)c2)c1: 0.05 µM
9) Cl.NCc1cc(Oc2cccc(C(=O)NCCS(N)(=O)=O)c2)nc(C(F)(F)F)c1: 0.035 µM

---

Target: Lysyl oxidase homolog 2 (Homo sapiens)
Experiment: Inhibition of human LOXL2 expressed in CHO cells assessed as reduction of H2O2 production from oxidative deamination of DAP preincubated for 2 hrs followed by substrate addition in presence of 0.1% BSA measured every 2 mins for 1 hr by amplex red reagent-based fluorescence assay
Format: cell-based
Quick list: IC50 per entry.
recorded-endpoint: IC50 (nM)

1. NCc1ccnc(OC2CCCCC2)c1: 1800
2. COc1ccc(NC(=O)c2cccc(Oc3cc(CN)ccn3)c2)cc1: 160
3. COCCNC(=O)c1cccc(Oc2cc(CN)ccn2)c1: 290
